These entries and their values trace back to patent US20190062749A1.

assay: Stability of siRNAs in human plasma in vitro (gel, ratio of the longest fragments RL); format: in vitro ADME; details: 50% human plasma, 37° C., 4 h
Oligonucleotides are written 5' to 3', each unit as a sugar letter and its base; * is a phosphorothioate linkage, no mark a phosphodiester; rarer units and linkages stand in square brackets, end groups in braces. Plain capitals give the bases only. d = 2'-deoxy (DNA); m = 2'-O-methyl; r = 2'-OH (RNA); f = 2'-fluoro
reported endpoint: RL (ratio of the longest fragments) 4 h (%)

substance	numeric value
1d: sense CmCmUmUmGAGGCmAUmACmUmUmCmAAAdTdT, antisense UUmUfGAAGUfAUfGCCUfCAAGGdTdT (sense mCmCmUmUrGrArGrGmCrAmUrAmCmUmUmCrArArAdTdT; antisense rUmUfUrGrArArGfUrAfUrGrCrCfUrCrArArGrGdTdT)	97.2
3d: sense CmCmUmUmGAGGCmAUmACmUmUmCmAAAdTdT, antisense UfUmUGAAGUfAUfGCCUfCAAGGdTdT (sense mCmCmUmUrGrArGrGmCrAmUrAmCmUmUmCrArArAdTdT; antisense fUmUrUrGrArArGfUrAfUrGrCrCfUrCrArArGrGdTdT)	99.6
14d: sense CmCmUmUmGAGGCmAUmACmUmUmCmAAAdTdT, antisense UfUmUfGAAGUfAUfGCCUCAAGGdTdT (sense mCmCmUmUrGrArGrGmCrAmUrAmCmUmUmCrArArAdTdT; antisense fUmUfUrGrArArGfUrAfUrGrCrCrUrCrArArGrGdTdT)	90.0
2d: sense CmCmUmUmGAGGCmAUmACmUmUmCmAAAdTdT, antisense UfUUfGAAGUfAUfGCCUfCAAGGdTdT (sense mCmCmUmUrGrArGrGmCrAmUrAmCmUmUmCrArArAdTdT; antisense fUrUfUrGrArArGfUrAfUrGrCrCfUrCrArArGrGdTdT)	88.2
A4: siRNA of CN102140461B; sense CmCmUmUmGAGGCmAUmACmUmUmCmAAAdTdT, antisense UfUmUfGAAGUfAUfGCCUfCAAGGdTdT (sense CCUUGAGGCAUACUUCAAATT; antisense UUUGAAGUAUGCCUCAAGGTT; sense: DNA at T, 2'-O-methyl at CU, RNA at AG, backbone not given here; antisense: sugars from the 5' end fmfrrrrfrfrrrfrrrrrdd, backbone not given here) [reference compound]	93.7
8d: sense CmCmUmUmGAGGCmAUmACmUmUmCmAAAdTdT, antisense UfUmUfGAAGUAUfGCCUfCAAGGdTdT (sense mCmCmUmUrGrArGrGmCrAmUrAmCmUmUmCrArArAdTdT; antisense fUmUfUrGrArArGrUrAfUrGrCrCfUrCrArArGrGdTdT)	72.7
X2M2(S−−): sense CmCmUmUmGAGGCmAUmACmUmUmCmAAAdTdT, antisense UfUmUfGAAGUfAUGCCUfCAAGGdTdT (as printed in the source, key not given here)	97.5
CA2: alternating modifications; sense CmCUmUGmAGmGCmAUmACmUUmCAmAAmdTdT, antisense UmUUmGAmAGmUAmUGmCCmUCmAAmGGmdTdT (sense CCUUGAGGCAUACUUCAAATT; antisense UUUGAAGUAUGCCUCAAGGTT; sugars from the 5' end mrmrmrmrmrmrmrmrmrmdd, backbone not given here) [reference compound]	76.5
X2M2(S++): sense CmCmUmUmGAGGCmAUmACmUmUmCmAAAdT-s-dT, antisense UfUmUfGAAGUfAUGCCUfCAAGGdT-s-dT (sense CCUUGAGGCAUACUUCAAAT; antisense UUUGAAGUAUGCCUCAAGGT; chemistry not fully specified)	98.2

====

# Lookup of reported RL (ratio of the longest fragments) 24 h keyed by entry
Test: Stability of siRNAs in human plasma in vitro (gel, ratio of the longest fragments RL)
Format: in vitro ADME
Conditions: 50% human plasma, 37° C., 24 h
Description: The siRNAs (20 μM, 10 μl) obtained in Preparation Example 1 were incubated with 50% human plasma (HP) at 37° C. in vitro for a certain time and samples were taken therefrom. Specifically, 10 μl samples were taken at 0, 2, 4, 6, 8, 24 and 48 hours respectively and immediately snap frozen in liquid nitrogen, followed by cryopreservation at −80° C. for future use. […]
Oligonucleotides are written 5' to 3', each unit as a sugar letter and its base; * is a phosphorothioate linkage, no mark a phosphodiester; rarer units and linkages stand in square brackets, end groups in braces. Plain capitals give the bases only. d = 2'-deoxy (DNA); m = 2'-O-methyl; r = 2'-OH (RNA); f = 2'-fluoro
reported endpoint: RL (ratio of the longest fragments) 24 h (%)

substance	unit descriptor	numeric value
X2M2(S−−): sense CmCmUmUmGAGGCmAUmACmUmUmCmAAAdTdT, antisense UfUmUfGAAGUfAUGCCUfCAAGGdTdT (as printed in the source, key not given here)	%	109.1
CA2: alternating modifications; sense CmCUmUGmAGmGCmAUmACmUUmCAmAAmdTdT, antisense UmUUmGAmAGmUAmUGmCCmUCmAAmGGmdTdT (sense CCUUGAGGCAUACUUCAAATT; antisense UUUGAAGUAUGCCUCAAGGTT; sugars from the 5' end mrmrmrmrmrmrmrmrmrmdd, backbone not given here) [reference compound]	%	48.7
2d: sense CmCmUmUmGAGGCmAUmACmUmUmCmAAAdTdT, antisense UfUUfGAAGUfAUfGCCUfCAAGGdTdT (sense mCmCmUmUrGrArGrGmCrAmUrAmCmUmUmCrArArAdTdT; antisense fUrUfUrGrArArGfUrAfUrGrCrCfUrCrArArGrGdTdT)	%	82.1
14d: sense CmCmUmUmGAGGCmAUmACmUmUmCmAAAdTdT, antisense UfUmUfGAAGUfAUfGCCUCAAGGdTdT (sense mCmCmUmUrGrArGrGmCrAmUrAmCmUmUmCrArArAdTdT; antisense fUmUfUrGrArArGfUrAfUrGrCrCrUrCrArArGrGdTdT)	%	78.0
8d: sense CmCmUmUmGAGGCmAUmACmUmUmCmAAAdTdT, antisense UfUmUfGAAGUAUfGCCUfCAAGGdTdT (sense mCmCmUmUrGrArGrGmCrAmUrAmCmUmUmCrArArAdTdT; antisense fUmUfUrGrArArGrUrAfUrGrCrCfUrCrArArGrGdTdT)	%	34.0
1d: sense CmCmUmUmGAGGCmAUmACmUmUmCmAAAdTdT, antisense UUmUfGAAGUfAUfGCCUfCAAGGdTdT (sense mCmCmUmUrGrArGrGmCrAmUrAmCmUmUmCrArArAdTdT; antisense rUmUfUrGrArArGfUrAfUrGrCrCfUrCrArArGrGdTdT)	%	55.7
3d: sense CmCmUmUmGAGGCmAUmACmUmUmCmAAAdTdT, antisense UfUmUGAAGUfAUfGCCUfCAAGGdTdT (sense mCmCmUmUrGrArGrGmCrAmUrAmCmUmUmCrArArAdTdT; antisense fUmUrUrGrArArGfUrAfUrGrCrCfUrCrArArGrGdTdT)	%	75.0
A4: siRNA of CN102140461B; sense CmCmUmUmGAGGCmAUmACmUmUmCmAAAdTdT, antisense UfUmUfGAAGUfAUfGCCUfCAAGGdTdT (sense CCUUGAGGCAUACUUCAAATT; antisense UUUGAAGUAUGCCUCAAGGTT; sense: DNA at T, 2'-O-methyl at CU, RNA at AG, backbone not given here; antisense: sugars from the 5' end fmfrrrrfrfrrrfrrrrrdd, backbone not given here) [reference compound]	%	90.0
X2M2(S++): sense CmCmUmUmGAGGCmAUmACmUmUmCmAAAdT-s-dT, antisense UfUmUfGAAGUfAUGCCUfCAAGGdT-s-dT (sense CCUUGAGGCAUACUUCAAAT; antisense UUUGAAGUAUGCCUCAAGGT; chemistry not fully specified)	%	92.1

====

experiment: Stability of siRNAs in human plasma in vitro (gel, ratio of the longest fragments RL); assay type: in vitro ADME; conditions: 50% human plasma, 37° C., 2 h
Oligonucleotides are written 5' to 3', each unit as a sugar letter and its base; * is a phosphorothioate linkage, no mark a phosphodiester; rarer units and linkages stand in square brackets, end groups in braces. Plain capitals give the bases only. d = 2'-deoxy (DNA); m = 2'-O-methyl; r = 2'-OH (RNA); f = 2'-fluoro
reported endpoint: RL (ratio of the longest fragments) 2 h (%)

substance	unit descriptor	numeric value
X2M2(S++): sense CmCmUmUmGAGGCmAUmACmUmUmCmAAAdT-s-dT, antisense UfUmUfGAAGUfAUGCCUfCAAGGdT-s-dT (sense CCUUGAGGCAUACUUCAAAT; antisense UUUGAAGUAUGCCUCAAGGT; chemistry not fully specified)	%	101.5
1d: sense CmCmUmUmGAGGCmAUmACmUmUmCmAAAdTdT, antisense UUmUfGAAGUfAUfGCCUfCAAGGdTdT (sense mCmCmUmUrGrArGrGmCrAmUrAmCmUmUmCrArArAdTdT; antisense rUmUfUrGrArArGfUrAfUrGrCrCfUrCrArArGrGdTdT)	%	90.0
